Measured pIC50 values are reported for all entries that follow.
Biological target: Acetylcholinesterase (Rattus norvegicus)
Sequence (P37136 whole entry): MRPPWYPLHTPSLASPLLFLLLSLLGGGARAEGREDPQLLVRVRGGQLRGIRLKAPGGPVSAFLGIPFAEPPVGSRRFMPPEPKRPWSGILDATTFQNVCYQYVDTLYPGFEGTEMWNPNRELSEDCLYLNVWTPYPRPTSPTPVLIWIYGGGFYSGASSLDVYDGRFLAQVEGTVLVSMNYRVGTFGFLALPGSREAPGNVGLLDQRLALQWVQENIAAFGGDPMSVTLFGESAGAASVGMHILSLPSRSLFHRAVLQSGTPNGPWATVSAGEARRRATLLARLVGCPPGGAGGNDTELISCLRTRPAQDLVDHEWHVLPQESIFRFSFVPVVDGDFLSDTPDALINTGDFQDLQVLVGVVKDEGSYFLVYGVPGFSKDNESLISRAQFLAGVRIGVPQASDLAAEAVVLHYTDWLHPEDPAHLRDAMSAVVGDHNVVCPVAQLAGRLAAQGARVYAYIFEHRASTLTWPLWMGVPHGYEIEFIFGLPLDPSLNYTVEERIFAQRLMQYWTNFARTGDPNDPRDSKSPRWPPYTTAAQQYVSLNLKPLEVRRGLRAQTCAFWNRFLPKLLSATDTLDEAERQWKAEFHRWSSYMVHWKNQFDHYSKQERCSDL
pIC50: −log10 of the molar value.
MEASURED_METRIC: pIC50

INSERT INTO results (compound, measured_metric, test_value) VALUES
  ('COc1ccc2c(n1)CCC(OC)C2(C)NCC1CCN(Cc2ccccc2)CC1 (stereo not drawn)', 'pIC50', '< 3.75'),
  ('CC1(NCC2CCN(Cc3ccccc3)CC2)c2ccc(O)nc2CCC1O (stereo not drawn)', 'pIC50', '< 3.72'),
  ('COc1ccc2c(n1)CCC(OC)C2(C)NC(=O)C1CCN(Cc2ccccc2)CC1 (stereo not drawn)', 'pIC50', 4.76);
